settings: 308.15 K; 100 kPa; Liquid; Vibrating tube method
Measurement type: mass density (kg/m3)
Return type: number; implicit unit kg/m3.

{"Compound": "CCn1cc[n+](C)c1.O=S(=O)([N-]S(=O)(=O)C(F)(F)F)C(F)(F)F", "mass density (kg/m3)": 1508.9}
{"Compound": "CCCCCCCC[P+](CC)(CC)CC.O=[N+]([O-])c1cn[n-]c1 [triethyloctylphosphonium 4-nitropyrazolide]", "mass density (kg/m3)": 1025.5}
{"Compound": "CCCC[n+]1ccn(C)c1.O=S(=O)([N-]S(=O)(=O)C(F)(F)F)C(F)(F)F", "mass density (kg/m3)": 1427.3}

Q. Requested read-out: mass density. Entry: CCCCCCn1cc[n+](C)c1C.O=S(=O)([N-]S(=O)(=O)C(F)(F)F)C(F)(F)F
A. 1350.8

Q. I am curious: what mass density value has been reported for CCCCCC[n+]1ccn(C)c1.O=S(=O)([N-]S(=O)(=O)C(F)(F)F)C(F)(F)F ?
A. 1362.8

Data origin: the NIST ThermoML archive (doi:10.1021/acs.jced.7b00221)
